In this section, each of the variants is paired with its reported screen value.
B1: TPTE2 peptide 94-109 (Phosphatidylinositol 3,4,5-trisphosphate 3-phosphatase TPTE2), 16-mer library wild type / TLN1 PTB (TLN1 Phosphotyrosine-binding (PTB) domain, residues 309-401) (parent)
chain 1: DLIFTDSKLYIPLEYR
chain 2: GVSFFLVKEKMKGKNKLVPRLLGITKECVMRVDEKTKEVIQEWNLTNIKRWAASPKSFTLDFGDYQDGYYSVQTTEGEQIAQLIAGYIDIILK

# Variants of: B1
# ASSAY_TEXT: proteomic peptide phage display deep mutational scan (ProP-PD DMS): M13 P8 16-mer library selected against immobilised GST-tagged bait for four days (rounds), NGS of the eluted pools per day and pseudo-replica
# ASSAY_CONTEXT: with TLN1 PTB (TLN1 Phosphotyrosine-binding (PTB) domain, residues 309-401); bait immobilised on MaxiSorp plates (10 µg), library pre-cleared on GST, 2 h binding at 4 °C, five washes; one round per day, days 1-4; value from days 2 and 3; keep out of graded; scale: average fractional NGS count over selection days 2 and 3
MEASURED_ENDPOINT: screen value

INSERT INTO measurements (construct_sequence, assay_result) VALUES
  ('chain 1 DLIFTDSKLYTPLEYR [chain 1 I11T]', 0.000474),
  ('chain 1 DLIFTDSHLYIPLEYR [chain 1 K8H]', 0.00014),
  ('chain 1 DLIFTDSKLYDPLEYR [chain 1 I11D]', '2.74e-05'),
  ('chain 1 DLIFTDSRLYIPLEYR [chain 1 K8R]', 0.00105),
  ('chain 1 NLIFTDSKLYIPLEYR [chain 1 D1N]', '7.86e-05'),
  ('chain 1 DLIFTDSKLYIPLEER [chain 1 Y15E]', 0.00244),
  ('chain 1 DLIFTDSKLYIPLKYR [chain 1 E14K]', 0.000193),
  ('chain 1 DLIFTDSKLYIPTEYR [chain 1 L13T]', 0.000339),
  ('chain 1 DLAFTDSKLYIPLEYR [chain 1 I3A]', '2.4e-05'),
  ('chain 1 DLIFTDSKLYIPSEYR [chain 1 L13S]', 0.0004),
  ('chain 1 DLIFTNSKLYIPLEYR [chain 1 D6N]', '6.84e-05'),
  ('chain 1 DLIFTDSKLYIPGEYR [chain 1 L13G]', 0.000105),
  ('chain 1 DLIFTSSKLYIPLEYR [chain 1 D6S]', 0.000216),
  ('chain 1 DLIFTDSKLYIPLWYR [chain 1 E14W]', '2.8e-05'),
  ('chain 1 DLIFTDSKLYIELEYR [chain 1 P12E]', 0),
  ('chain 1 DLIFTDSKLYIPLHYR [chain 1 E14H]', '9.43e-05'),
  ('chain 1 DLIFTDSKLYIPLEIR [chain 1 Y15I]', 0.00364),
  ('chain 1 DLIFTDSKLYIPLEQR [chain 1 Y15Q]', 0.00142),
  ('chain 1 DLWFTDSKLYIPLEYR [chain 1 I3W]', 0.000147),
  ('chain 1 DLIFTDSKLYIWLEYR [chain 1 P12W]', 0),
  ('chain 1 DLIFDDSKLYIPLEYR [chain 1 T5D]', 0),
  ('chain 1 DLIFTDSKLYSPLEYR [chain 1 I11S]', '7.21e-05');
